- Target System: D2L human dopamine receptors (Homo sapiens, UniProt P14416)
- Assay Text: D2 binding assay ([^3H]methylspiperone, HEK membranes)
- Test Context: ratio of D3 (Example 5) to D2 (Example 3) binding assay
Readout Kind: D3/D2 binding Ki ratio
Answers are plain numbers.

The examples below pair each entry with its known result.
{"Compound": "CN1C(=O)c2ccccc2[S@+]([O-])c2ccc(C(=O)NCc3cccnc3)cc21", "Target System": "D2L human dopamine receptors (Homo sapiens, UniProt P14416)", "D3/D2 binding Ki ratio": 70.0}
{"Compound": "CCN1C(=O)c2ccccc2[S@+]([O-])c2ccc(C(=O)N[C@H](C)c3ccc4ccccc4c3)cc21", "Target System": "D2L human dopamine receptors (Homo sapiens, UniProt P14416)", "D3/D2 binding Ki ratio": 16.2}
{"Compound": "CN1C(=O)c2ccccc2[S@+]([O-])c2ccc(C(=O)NCCN3CCCC3)cc21", "Target System": "D2L human dopamine receptors (Homo sapiens, UniProt P14416)", "D3/D2 binding Ki ratio": 1.7}
{"Compound": "CN1C(=O)c2ccccc2[S@+]([O-])c2ccc(C(=O)NCc3ccc(Br)cc3)cc21", "Target System": "D2L human dopamine receptors (Homo sapiens, UniProt P14416)", "D3/D2 binding Ki ratio": 1.5}
{"Compound": "CCN1C(=O)c2ccccc2[S@+]([O-])c2ccc(C(=O)NCc3ccc(C#N)cc3)cc21", "Target System": "D2L human dopamine receptors (Homo sapiens, UniProt P14416)", "D3/D2 binding Ki ratio": 5.7}
{"Compound": "CCN1C(=O)c2ccccc2[S@+]([O-])c2ccc(C(=O)NCc3ccc(F)cc3)cc21", "Target System": "D2L human dopamine receptors (Homo sapiens, UniProt P14416)", "D3/D2 binding Ki ratio": 2.6}

I'm hoping you can list D3/D2 binding Ki ratio for every compound here, please.
1. CN1C(=O)c2ccccc2[S@+]([O-])c2ccc(C(=O)NCCc3cccs3)cc21
2. CN1C(=O)c2ccccc2[S+]([O-])c2ccc(C(=O)NCCc3cccs3)cc21 (racemic)
3. CCN1C(=O)c2ccccc2[S+]([O-])c2ccc(C(=O)NCc3ccc(OC)cc3)cc21 (stereo not shown)
4. CCN1C(=O)c2ccccc2[S@+]([O-])c2ccc(C(=O)N[C@H](C)c3ccc(Br)cc3)cc21

### Response
1. 29.0
2. 28.7
3. 6.0
4. 1.3

* * *

Assignment: determine reported AC50 for the given compounds.
- Target System: D2 DAR (Homo sapiens, UniProt P14416)
- Construct: expressed in transfected cells; host or cells: HEK293 T-REx, Tet-inducible, with chimeric G-protein Gqi5
- Assay Text: D2 Ca^2+ screen assay (calcium accumulation, HEK293 T-REx with Gqi5)
- Type: cell-based
- Test Context: dopamine D2 calcium release assay of Example 1; read-out: Ca^2+ AC50

Example cases with answers are listed next.
{"Compound": "CN1C(=O)c2ccccc2[S+]([O-])c2ccc(C(=O)NCCc3cccs3)cc21 (racemic)", "Target System": "D2 DAR (Homo sapiens, UniProt P14416)", "AC50": "< 1000 nM"}
{"Compound": "CN1C(=O)c2ccccc2[S+]([O-])c2ccc(C(=O)NCc3ccc(Br)cc3)cc21 (centres unmarked)", "Target System": "D2 DAR (Homo sapiens, UniProt P14416)", "AC50": "< 1000 nM"}

Provide AC50 values for the following items, in order.
1. CCCN1C(=O)c2ccccc2[S+]([O-])c2ccc(C(=O)NCc3ccc(OC)cc3)cc21 (centres unmarked)
2. CCN1C(=O)c2ccccc2[S+]([O-])c2ccc(C(=O)NCc3ccc(SC)cc3)cc21 (centres unmarked)
3. CN1C(=O)c2ccccc2[S+]([O-])c2ccc(C(=O)NCc3cccc(Cl)c3)cc21 (centres unmarked)
4. CN1C(=O)c2ccccc2[S+]([O-])c2ccc(C(=O)NCCN3CCCC3)cc21 (centres unmarked)
5. CN1C(=O)c2ccccc2[S+]([O-])c2ccc(C(=O)NCc3ccc(Cl)cc3)cc21 (centres unmarked)
6. CCN1C(=O)c2ccccc2[S+]([O-])c2ccc(C(=O)NCc3ccc(C(C)(C)C)cc3)cc21 (centres unmarked)

### Response
< 1000 nM
< 1000 nM
< 1000 nM
< 1000 nM
< 1000 nM
< 1000 nM

* * *

- Target System: D4 (Homo sapiens, UniProt P21917)
- Sequence (P21917 whole entry): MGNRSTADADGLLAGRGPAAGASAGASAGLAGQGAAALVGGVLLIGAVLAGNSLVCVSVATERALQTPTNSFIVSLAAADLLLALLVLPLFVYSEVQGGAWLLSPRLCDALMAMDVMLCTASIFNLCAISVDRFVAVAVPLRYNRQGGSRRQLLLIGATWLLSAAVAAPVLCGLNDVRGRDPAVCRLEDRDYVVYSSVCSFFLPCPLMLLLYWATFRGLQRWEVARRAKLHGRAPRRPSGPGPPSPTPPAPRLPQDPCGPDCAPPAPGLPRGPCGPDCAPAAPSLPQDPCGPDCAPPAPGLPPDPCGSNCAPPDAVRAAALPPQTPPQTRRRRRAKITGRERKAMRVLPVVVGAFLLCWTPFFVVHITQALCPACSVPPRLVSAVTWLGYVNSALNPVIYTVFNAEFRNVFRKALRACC
Readout Kind: pKi
Give bare numbers, as −log10 of the molar value.

### Prompt Fill in reported pKi for this entry: CN1C(=O)c2ccccc2[S@+]([O-])c2ccc(C(=O)NCCc3cccs3)cc21 [Compound 55]
### Response 5.07

* * *

- Target System: D2L human dopamine receptors (Homo sapiens)
- Assay Text: D2 binding assay ([^3H]methylspiperone, HEK membranes)
Hi there, I'd appreciate the recorded pKi for every entry that follows.
Give bare numbers, as −log10 of the molar value.

{"Compound": "CN1C(=O)c2ccccc2[S@+]([O-])c2ccc(C(=O)NCCc3cccs3)cc21", "Target System": "D2L human dopamine receptors (Homo sapiens)", "pKi": 7.00}

Could you now consider this next compound?
### Prompt Provide measured pKi value, entry: CCN1C(=O)c2ccccc2[S+]([O-])c2ccc(C(=O)NCc3ccc(OC)cc3)cc21 (centres unmarked)
### Response 7.10

* * *

- Target System: D3 human dopamine receptors (Homo sapiens, UniProt P35462)
- Sequence (P35462 whole entry): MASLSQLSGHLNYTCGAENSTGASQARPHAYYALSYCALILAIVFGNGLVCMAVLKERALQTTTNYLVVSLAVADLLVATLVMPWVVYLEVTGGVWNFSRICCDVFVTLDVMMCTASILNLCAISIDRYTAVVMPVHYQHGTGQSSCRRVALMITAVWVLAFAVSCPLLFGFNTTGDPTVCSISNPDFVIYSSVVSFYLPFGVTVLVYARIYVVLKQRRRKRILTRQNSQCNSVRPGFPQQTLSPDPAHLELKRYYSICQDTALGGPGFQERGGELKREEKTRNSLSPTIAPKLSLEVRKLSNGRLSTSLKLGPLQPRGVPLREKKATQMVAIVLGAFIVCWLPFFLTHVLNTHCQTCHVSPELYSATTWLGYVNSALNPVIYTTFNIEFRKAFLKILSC
Readout Kind: pKi
Answers are plain numbers, as −log10 of the molar value.

### Prompt Using D3 human dopamine receptors (Homo sapiens, UniProt P35462) as the test system, report measured pKi of CN1C(=O)c2ccccc2[S@+]([O-])c2ccc(C(=O)NCCc3cccs3)cc21 .
### Response 5.54

* * *

Give D3/D2 beta-arrestin IC50ratio for every item shown.
- Target System: D2 GPCR receptor (DAR) (Homo sapiens)
- Construct: host or cells: CHO PathHunter β-arrestin cells
- Sequence (P14416 whole entry): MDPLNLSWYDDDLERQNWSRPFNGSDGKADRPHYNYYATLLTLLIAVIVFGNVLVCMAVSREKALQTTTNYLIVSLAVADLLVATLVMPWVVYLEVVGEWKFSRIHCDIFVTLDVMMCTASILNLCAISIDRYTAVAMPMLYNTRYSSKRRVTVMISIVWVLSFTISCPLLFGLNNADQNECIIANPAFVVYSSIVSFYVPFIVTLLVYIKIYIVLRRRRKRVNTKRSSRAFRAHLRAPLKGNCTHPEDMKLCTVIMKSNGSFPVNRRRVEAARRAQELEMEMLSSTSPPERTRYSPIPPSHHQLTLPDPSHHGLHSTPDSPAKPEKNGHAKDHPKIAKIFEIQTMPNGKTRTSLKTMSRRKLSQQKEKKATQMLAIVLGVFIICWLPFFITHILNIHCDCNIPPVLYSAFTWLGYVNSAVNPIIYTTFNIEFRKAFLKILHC
- Assay Text: D2 beta-arrestin functional assay (PathHunter, CHO)
- Type: cell-based
- Test Context: ratio of D3 (Example 4) to D2 (Example 2) beta arrestin assay
One number for each entry.

As a guide, the following entries are already answered.
{"Molecule": "CCN1C(=O)c2ccccc2[S@+]([O-])c2ccc(C(=O)NCc3ccc(C#N)cc3)cc21", "D3/D2 beta-arrestin IC50ratio": 6.3}
{"Molecule": "CCN1C(=O)c2ccccc2[S@+]([O-])c2ccc(C(=O)N[C@H](C)c3ccc4ccccc4c3)cc21", "D3/D2 beta-arrestin IC50ratio": 11.2}
{"Molecule": "CN1C(=O)c2ccccc2[S@+]([O-])c2ccc(C(=O)NCCN3CCCC3)cc21", "D3/D2 beta-arrestin IC50ratio": 7.2}

For the 6 molecules below, give their D3/D2 beta-arrestin IC50ratio values.
1. CN1C(=O)c2ccccc2[S@+]([O-])c2ccc(C(=O)NCc3ccc(Br)cc3)cc21
2. CCN1C(=O)c2ccccc2[S@+]([O-])c2ccc(C(=O)N[C@H](C)c3ccc(Br)cc3)cc21
3. CCN1C(=O)c2ccccc2[S@+]([O-])c2ccc(C(=O)NCc3ccc(OC)cc3)cc21
4. CCN1C(=O)c2ccccc2[S@+]([O-])c2ccc(C(=O)NCc3ccc(F)cc3)cc21
5. CN1C(=O)c2ccccc2[S@+]([O-])c2ccc(C(=O)NCc3cccnc3)cc21
6. CCN1C(=O)c2ccccc2[S+]([O-])c2ccc(C(=O)NCc3ccc(OC)cc3)cc21 (stereo not drawn)

### Response
1. 4.6
2. 7.1
3. 2.5
4. 5.6
5. 5.0
6. 2.0
